# target entity: T1, human TREM2 expressed on cells (human, UniProt Q9NZC2 19-230)
# T1 sequence: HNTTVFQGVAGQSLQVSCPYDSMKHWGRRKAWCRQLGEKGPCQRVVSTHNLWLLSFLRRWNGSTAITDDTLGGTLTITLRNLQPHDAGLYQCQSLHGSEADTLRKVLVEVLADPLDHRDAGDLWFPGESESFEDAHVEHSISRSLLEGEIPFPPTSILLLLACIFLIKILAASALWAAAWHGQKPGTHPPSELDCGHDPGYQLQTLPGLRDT
# protocol summary: cell-based or functional assay
experimental readout: DC viability (AUC)
# number only, unit AUC dropped from output

stdin: Fill in the blank: the reported DC viability (AUC) of AL2p-49 (antibody, V domains shown, Fab and IgG formats under one id) VH: EVQLVQSGAEVKKPGSSVKVSCKASGYAFSSDWMNWVRQAPGQGLEWMGRIYPGEGDTNYARKFHGRVTITADESTSTAYMELSSLRSEDTAVYYCARLLRNKPGESYAMDYWGQGTLVTVSS VL: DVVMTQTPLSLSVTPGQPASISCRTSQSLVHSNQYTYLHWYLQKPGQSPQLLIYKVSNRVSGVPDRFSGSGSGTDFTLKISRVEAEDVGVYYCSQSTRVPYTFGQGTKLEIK is ____.
stdout: 754000

Let us move to another entry and its DC viability (AUC).
stdin: # query: DC viability (AUC) of entry AL2p-51 (antibody, V domains shown, Fab and IgG formats under one id) VH: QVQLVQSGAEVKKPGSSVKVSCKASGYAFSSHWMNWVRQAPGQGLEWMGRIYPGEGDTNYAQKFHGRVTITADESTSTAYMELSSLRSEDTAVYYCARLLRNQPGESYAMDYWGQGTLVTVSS VL: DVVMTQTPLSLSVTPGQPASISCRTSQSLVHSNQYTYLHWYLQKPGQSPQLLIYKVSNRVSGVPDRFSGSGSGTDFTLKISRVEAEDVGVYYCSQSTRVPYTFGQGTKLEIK
stdout: 259000
